assay: antimalarial activity against Dd2 strain (AID 2302);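 note: 0% = DMSO untreated growth and 100% = chloroquine plus artemisinin killed control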; conditions: P. falciparum Dd2 in RBCs, LDH growth readout, 72 h; at 2 µM
Active and inactive are the calls of the source.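 Rule for the calls: active = growth inhibition above 50% at the single 2 µM test dose, taken to imply half-maximal potency below 2 µM; inactive = the rest.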
Your reply should match one of these outcome classes. active, inactive

Take a look at these entries with their results.
COMPOUND: Cc1cccc2[nH]c(-c3ccc(-c4ccc(CNCCNC(=O)c5ccnn5C)cc4)s3)nc12
ASSIGNED CLASS: active

COMPOUND: CN(CCCCCNC(=O)/C=C/c1ccc(Cl)c(Cl)c1)CCc1c[nH]c2ccccc12
ASSIGNED CLASS: inactive

COMPOUND: CC(Cc1ccc(CN(CC(N)=O)Cc2ccc(CC(C)NCCc3cccc(Cl)c3)cc2)cc1)NCCc1cccc(Cl)c1 (stereo not given)
ASSIGNED CLASS: active

COMPOUND: Cc1cc2cc(NC(=O)Nc3ccnc4ccccc34)ccc2n1C
ASSIGNED CLASS: inactive

COMPOUND: COc1ccc(NC(=O)[C@H](Cc2ccccc2)Nc2cc(C)nc(NCC3CCCCC3)n2)cc1
ASSIGNED CLASS: active

COMPOUND: COc1ccccc1N1CCN(c2cccc(F)c2C#N)CC1
ASSIGNED CLASS: active

COMPOUND: CC(C)CNCc1ccc(-c2ccc(CN(CCCN3CCN(C)CC3)C(=O)CCC3CCCC3)cc2)cc1
ASSIGNED CLASS: active

COMPOUND: CCN(CCCN1CCCCC1)c1cc(C)nc(Nc2cc(Cl)cc(Cl)c2)n1
ASSIGNED CLASS: active

COMPOUND: O=C(NCC1CC1)C1CCN(C(c2ccc(Cl)cc2)c2ccc(Cl)cc2)CC1
ASSIGNED CLASS: active

Now consider the entry below.
Input line: Returns: the outcome recorded for `Cc1cc(NC(=O)N=C(N)N)ccc1Cl` in this assay.
Output line: inactive

====

target: Protein kinase 7 (PK7), Plasmodium falciparum 3D7 (PF3D7_0213400); assay: inhibition of Plasmodium PK7 catalytic activity – biochemical, TCAMS antimalarial set, Kinase-Glo luminescence (AID 1159587); details: recombinant PfPK7, Kinase-Glo ATP depletion luminescence
Calls of active or inactive are those of the source. How the calls were made is not given here.
OBSERVATION TYPE: outcome

Worked set:
COMPOUND: CC(=O)Nc1ccc(C(=O)Nc2ccc(-c3cccc(-c4nc5ccc(F)cc5[nH]4)c3)cc2)cn1
outcome: inactive
--
COMPOUND: CCC(=O)c1c(C)n(-c2ncnc3c2nc(C)n3-c2ccc(C)cc2C)c2ccccc12
outcome: inactive
--
COMPOUND: CCOc1cc(C(=O)NC2CCN(Cc3ccccc3)CC2)ccc1-c1nc2cc(Cl)c(F)cc2[nH]1
outcome: inactive
--
COMPOUND: Cc1cc(NCCc2ccccc2)nc(/N=C(\N)Nc2cccc(Cl)c2)n1
outcome: inactive
--
COMPOUND: Oc1c(C(Nc2nc3ccccc3s2)c2ccccc2)ccc2cccnc12 (centres undefined)
outcome: inactive

Input line: Record request: outcome value, item Cc1cc(C(=O)Nc2ccc3c(c2)CCN3C2CCN(Cc3ccc(O)cc3)C2)no1 (centres undefined)
Output line: inactive

Input line: Record request: outcome value, item `COc1cc2nc(N3CCN(c4cc(C)ccc4C)CC3)nc(N)c2cc1OC`
Output line: inactive

Input line: Record request: outcome value, item CC(C)c1ccc(CN2CCC(CNC(=O)c3cc(-c4cccc(C(F)(F)F)c4)cs3)C2)cc1 (centres undefined)
Output line: inactive

Input line: Record request: outcome value, item `O=C(Nc1cccc(OC2CCN(Cc3ccc(F)cc3)CC2)c1)c1ccc(C(F)(F)F)cc1`
Output line: inactive

====

test: human hepatoma cell viability loss – ATP luminescence, cytotoxicity control for P. falciparum antimalarial project, primary screen (AID 2303); conditions: HepG2 viability, 24-48 h, at 10 µM, active compounds read high;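 note: 0% = DMSO wells and 100% = digitonin-killed cells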
OBSERVATION TYPE: inhibition (%)
Your answer is read as %, so omit the unit and give the number.

Worked set:
COMPOUND: C[C@@H](Nc1nc(NCc2ccccc2)c2sccc2n1)c1ccccc1
OUTPUT UNIT: %
inhibition: 31
//
COMPOUND: Cc1cccc2[nH]c(-c3ccc(-c4cccc(NC(=O)Nc5ccc(Cl)cc5)c4)s3)nc12
OUTPUT UNIT: %
inhibition: 25
//
COMPOUND: O=C(NCCN1CCCCC1)c1cc2cc(-c3ccccc3)ccc2n1S(=O)(=O)c1ccccc1
OUTPUT UNIT: %
inhibition: 15
//
COMPOUND: CN1CCCN(Cc2cccc(-c3ccc(NC(=O)c4cccc(C#N)c4)cc3)c2)CC1
OUTPUT UNIT: %
inhibition: 27
//
COMPOUND: CCOc1ccc2nc(C)cc(NN=Cc3cccnc3)c2c1
OUTPUT UNIT: %
inhibition: 18
//
COMPOUND: N#CN1CC[C@@H](OC(=O)N[C@@H]2C[C@H]2c2ccccc2)C1
OUTPUT UNIT: %
inhibition: -1
//
COMPOUND: O=C(NCc1ccccc1)O[C@@H]1CNCC[C@H]1c1ccc(C(O)Cc2ccccc2)cc1 (stereo not given in full)
OUTPUT UNIT: %
inhibition: 8
//
COMPOUND: CC(CN1CCN(C)CC1)C(=O)Nc1ccc(-c2ccc(-c3nc4ccccc4[nH]3)cc2)cc1 (stereo not given)
OUTPUT UNIT: %
inhibition: 13
//
COMPOUND: Cc1ccc2nc(C)cc(NN=Cc3ccccc3[N+](=O)[O-])c2c1
OUTPUT UNIT: %
inhibition: 5

Now examine the next entry.
Input line: Record request: inhibition value, item `CCOC(=O)c1ccc(NC(=O)Nc2cccc(-c3cccc(-c4nc5ccccc5[nH]4)c3)c2)cc1`
Output line: 76

====

assay: antimalarial activity against Dd2 strain (AID 2302);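 note: 0% = DMSO untreated growth and 100% = chloroquine plus artemisinin killed control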; settings: P. falciparum Dd2 in RBCs, LDH growth readout, 72 h; at 2 µM
Calls of active or inactive are those of the source.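 The calls were made as follows: active = growth inhibition above 50% at the single 2 µM test dose, taken to imply half-maximal potency below 2 µM; inactive = the rest.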
Your reply should match one of these outcome classes. active, inactive

COMPOUND: Cc1cc(N2CCCC2)nc(Nc2ccc(NC(=O)C(C)(C)C)cc2)n1
ASSIGNED CLASS: inactive
--
COMPOUND: COc1ccccc1/C=C/C(=O)NCCC1CCN(CCCCCNC(=O)/C=C/c2ccc(Cl)c(Cl)c2)CC1
ASSIGNED CLASS: inactive
--
COMPOUND: CCCC(C(=O)OCCN(CC)CC)(c1ccc(Cl)cc1)c1ccc(Cl)cc1
ASSIGNED CLASS: active
--
COMPOUND: Nc1ccc2[nH]cc(C3CCN(CC4CCC(NC(=O)/C=C/c5ccc(Cl)c(Cl)c5)CC4)CC3)c2n1 (stereo not given)
ASSIGNED CLASS: active
--
COMPOUND: CCOC(=O)c1ccc(N2CCN(c3cc(Cl)ccc3C)CC2)c(NC(=O)Nc2ccc(Cl)c(Cl)c2)c1
ASSIGNED CLASS: active
--
COMPOUND: CN(C)C1CCN(Cc2ccc(N3CCN(Cc4cccc5[nH]ccc45)CC3)nc2)CC1
ASSIGNED CLASS: inactive

Input line: Returns: the outcome recorded for `Cc1onc(-c2ccccc2)c1-c1nc(NCCC(c2ccccc2)c2ccccc2)no1` in this assay.
Output line: active

Input line: Returns: the outcome recorded for `O=C(NCC1CCN(CCN2CCC(c3cn(CCO)c4ccccc34)CC2)CC1)c1ccc(-c2ccc(C(F)(F)F)cc2)cc1` in this assay.
Output line: active

Input line: Returns: the outcome recorded for O=C(Cc1ccccc1)NC(CCN1CCC(O)(c2cccc(C(F)(F)F)c2)CC1)c1ccc(Cl)c(Cl)c1 (stereo not given) in this assay.
Output line: inactive

Input line: Returns: the outcome recorded for `CN1CCCN(Cc2cccc(-c3cccc(NC(=O)c4ccc(Cl)cc4)c3)c2)CC1` in this assay.
Output line: inactive

Input line: Returns: the outcome recorded for `O=C(CC(=O)C(F)(F)F)c1ccccc1[N+](=O)[O-]` in this assay.
Output line: active

====

biological target: L-lactate dehydrogenase (Plasmodium falciparum (isolate CDC / Honduras)); experiment: PfLDH activity inhibition – cell lysate, 3D7 strain, counter-screen for P. falciparum growth inhibition project (AID 2304);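 note: 0% = vehicle and 100% = reference inhibitor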; details: P. falciparum 3D7 crude extract, LDH APAD/NBT absorbance; at 2 µM; active compounds read high
Active and inactive are the calls of the source. How the calls were made is not given here.
OBSERVATION TYPE: inhibition

MOLECULE: Cc1[nH]c(C)c(-c2cc3ccccc3o2)c(=O)c1Cl
OBSERVATION TYPE: inhibition
RESULT: -2% (inactive)

MOLECULE: O=C(Nc1ccc(OC2CCN(Cc3ccc(F)cc3)CC2)cc1)c1cccs1
OBSERVATION TYPE: inhibition
RESULT: -2% (inactive)

MOLECULE: CN(C)Cc1cccc(-c2ccc(NC(=O)c3ccc4c(=O)n(CCN5CCCCC5)cnc4c3)cc2)c1
OBSERVATION TYPE: inhibition
RESULT: -1% (inactive)

MOLECULE: COc1ccc(-c2cc(C(=O)Nc3ccc(CCCN(C)Cc4ccc(OC)c(OC)c4)cc3)c3ccccc3n2)cc1
OBSERVATION TYPE: inhibition
RESULT: -3% (inactive)

Input line: Value wanted: inhibition (L-lactate dehydrogenase (Plasmodium falciparum (isolate CDC / Honduras))) of entry CCCCOP(=O)(COc1ccc(CCN(CC(O)COc2cccc3[nH]c4ccccc4c23)CC(O)COc2cccc3[nH]c4ccccc4c23)cc1)C1CCCCC1 (centres undefined)
Output line: 4% (inactive)

Input line: Value wanted: inhibition (L-lactate dehydrogenase (Plasmodium falciparum (isolate CDC / Honduras))) of entry `CN1CCN(CCCCCCNc2c3ccccc3nc3ccccc23)CC1`
Output line: -3% (inactive)
